- Tested on: human liver mitochondrial fraction
- PROCEDURE_SUMMARY: Intrinsic clearance and half-life in human liver mitochondrial fraction
- Assay type: in vitro ADME
- CONDITION_PARAMETERS: 0.5 mg/mL human liver mitochondrial fraction; 1 μM test compounds, 5 μM controls; replicate 4
Returns one of 1.0 or 0.0; 1.0 when Half-life (min) R4 is >= 10 min.

In plain terms: is recorded Half-life (min) R4 at least 10 min for O=C(O)/C=C/C(=O)O.[2H]C([2H])(Cc1c[nH]c2ccccc12)N(C)C [SPL028i] ?
1.0

In plain terms: is recorded Half-life (min) R4 at least 10 min for NCCc1c[nH]c2ccc(O)cc12 [Serotonin, reference compound] ?
0.0

In plain terms: is recorded Half-life (min) R4 at least 10 min for CN(C)CCc1c[nH]c2ccccc12.O=C(O)/C=C/C(=O)O [SPL026] ?
0.0

In plain terms: is recorded Half-life (min) R4 at least 10 min for [2H]C([2H])([2H])N(CCc1c[nH]c2ccccc12)C([2H])([2H])[2H] [SPL028vii] ?
1.0

In plain terms: is recorded Half-life (min) R4 at least 10 min for NCc1ccccc1 [Benzylamine, reference compound] ?
1.0

###

Kindly state Half-life (min) R3 for each of the entries shown.
- Tested on: human liver mitochondrial fraction
- PROCEDURE_SUMMARY: Intrinsic clearance and half-life in human liver mitochondrial fraction
- Type: in vitro ADME
- CONDITION_PARAMETERS: 0.5 mg/mL human liver mitochondrial fraction; 1 μM test compounds, 5 μM controls; replicate 3
Return type: number; implicit unit min.

For record O=C(O)/C=C/C(=O)O.[2H]C([2H])([2H])N(C([2H])([2H])[2H])C([2H])([2H])Cc1c[nH]c2ccccc12 the listed Half-life (min) R3 is 92.9

For record CN(C)CCc1c[nH]c2ccccc12.O=C(O)/C=C/C(=O)O the listed Half-life (min) R3 is 7.6

For record NCCc1c[nH]c2ccc(O)cc12 [Serotonin, reference compound] the listed Half-life (min) R3 is 9.1

For record [2H]C([2H])([2H])N(CCc1c[nH]c2ccccc12)C([2H])([2H])[2H] the listed Half-life (min) R3 is 9.4

For record NCc1ccccc1 [Benzylamine, reference compound] the listed Half-life (min) R3 is 21.2

For record O=C(O)/C=C/C(=O)O.[2H]C([2H])(Cc1c[nH]c2ccccc12)N(C)C [SPL028i] the listed Half-life (min) R3 is 82.6

###

- Test system: human liver mitochondrial fraction
- PROCEDURE_SUMMARY: Intrinsic clearance and half-life in human liver mitochondrial fraction
- Format: in vitro ADME
- CONDITION_PARAMETERS: 0.5 mg/mL human liver mitochondrial fraction; 1 μM test compounds, 5 μM Serotonin and Benzylamine controls; replicate 1
Kindly state Half-life (min) R1 for each of the entries shown.
Return type: number; implicit unit min.

For record NCc1ccccc1 [Benzylamine, reference compound] the listed Half-life (min) R1 is 24.3

For record NCCc1c[nH]c2ccc(O)cc12 [Serotonin, reference compound] the listed Half-life (min) R1 is 9.3

For record O=C(O)/C=C/C(=O)O.[2H]C([2H])(Cc1c[nH]c2ccccc12)N(C)C [SPL028i] the listed Half-life (min) R1 is 86.1

For record CN(C)CCc1c[nH]c2ccccc12.O=C(O)/C=C/C(=O)O [SPL026] the listed Half-life (min) R1 is 8.8
